Target: T1, caspase-3 (UniProt P42574 29-277, limits assumed)
T1 sequence (looked up): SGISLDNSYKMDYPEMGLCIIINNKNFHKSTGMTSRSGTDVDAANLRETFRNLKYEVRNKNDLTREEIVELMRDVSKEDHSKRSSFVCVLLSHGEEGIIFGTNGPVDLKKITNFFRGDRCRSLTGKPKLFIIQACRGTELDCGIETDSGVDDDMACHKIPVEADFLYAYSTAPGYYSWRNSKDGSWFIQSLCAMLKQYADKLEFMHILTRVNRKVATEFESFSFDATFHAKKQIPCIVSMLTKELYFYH
Assay: cell-based or functional assay
Numbered stars: 1 amine (or outer) side, 2 acyl side, 3 side chain; on linkers, the order of the positions; unused ones are H or OH. Square brackets hold non-standard residues; d marks the D form. * marks the point of attachment. AAsp = aza-Asp, O=C(N(CC(=O)[*:3])N[*:1])[*:2]; azaAsp = O=C(N(CC(=O)[*:3])N[*:1])[*:2]; PhPr = N-terminal cap as named (PhPr); Cbz = O=C(OCc1ccccc1)*; NHBn = c1ccc(CN*)cc1
Listed here: items and their measured k2.
property: k2

binder: Cbz-IET[azaAsp]-{(S,S)‑EP‑CO-Ala-NHBn} [Cbz-Ile-Glu-Thr-AAsp-(S,S)-EP-CO-Ala-NHCH2Ph]
property: k2
endpoint_value: 3050 M⁻¹ s⁻¹
//
binder: Cbz-IET[azaAsp]-{(S,S)‑EP‑COOCH2Ph} [Cbz-Ile-Glu-Thr-AAsp-(S,S)-EP-COOCH2Ph]
property: k2
endpoint_value: 9540 M⁻¹ s⁻¹
//
binder: PhPr-Val-Ala-[AAsp]-{(2S,3S)‑EP‑COOCH2Ph} [PhPr-Val-Ala-AAsp-(2S, 3S)-EP-COOCH2Ph]
property: k2
endpoint_value: 1470 M⁻¹ s⁻¹
//
binder: Cbz-IET[azaAsp]-{(R,R)‑EP‑CONHCH2Ph} [Cbz-Ile-Glu-Thr-AAsp-(R, R)-EP-CONHCH2Ph]
property: k2
endpoint_value: 6480 M⁻¹ s⁻¹
//
binder: Cbz-Val-[azaAsp]-{(S,S)‑EP‑COOH} [Cbz-Val-AAsp-(S, S)-EP-COOH]
property: k2
endpoint_value: 1110 M⁻¹ s⁻¹
//
binder: Cbz-Val-[azaAsp]-{(S,S)‑EP‑COOEt} [Cbz-Val-AAsp-(S,S)-EP-COOEt]
property: k2
endpoint_value: 3650 M⁻¹ s⁻¹
